# optical density per record follows
- tested.system: Mouse ACVR2A (mouse, UniProt P27038 20-135, limits assumed); also: test concentration or dose not given here
- Sequence (P27038 20-135 limits assumed): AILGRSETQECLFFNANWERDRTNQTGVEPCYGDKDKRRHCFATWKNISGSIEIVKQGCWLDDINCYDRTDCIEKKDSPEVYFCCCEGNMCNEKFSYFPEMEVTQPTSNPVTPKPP
- experimental.protocol: ELISA
Numeric answer only, unit OD assumed.

See these solved cases before continuing.
- binder: "374_A04 (antibody, V domains shown, VH/VL only) VH: EVQLLESGGGLVQPGGSLRLSCAASGFTFSSYSMNWVRQAPGKGLEWVAGINYNGGYTSYADSVKGRFTISRDNSKNTLYLQMNSLRAEDTAVYYCARGATWHDTHLDYWGQGTLVTVSS VL: DIQMTQSPSSLSASVGDRVTITCRASQSILTYLNWYQQKPGKAPKLVIYAATSRASGVPSRFSGSGSGTDFTLTISSLQPEDFATYYCQQSYDTPLTFGGGTKVEIK"
  units: "OD"
  measured.value: 3.68
- binder: "371_E08 (antibody, V domains shown, VH/VL only) VH: EVQLLESGGGLVQPGGSLRLSCAASGFTFSSYSMNWVRQAPGKGLEWVSNINYNSGYKSYADSVKGRFTISRDNSKNTLYLQMNSLRAEDTAVYYCARGATWHDTHLDYWGQGTLVTVSS VL: DIQMTQSPSSLSASVGDRVTITCRASQSIVSYVNWYQQKPGKAPKLVIYAATSRHSGVPSRFSGSGSGTDFTLTISSLQPEDFATYYCQQSYDLPLTFGGGTKVEIK"
  units: "OD"
  measured.value: 2.27

# evaluate next
Prompt: What does the data say about its optical density? Entry: 370_F01 (antibody, V domains shown, VH/VL only) VH: EVQLLESGGGLVQPGGSLRLSCAASGFTFSSYGMNWVRQAPGKGLEWVSNINYNGGYTSYADSVKGRFTISRDNSKNTLYLQMNSLRAEDTAVYYCARGATWHDTHLDYWGQGTLVTVSS VL: DIQMTQSPSSLSASVGDRVTITCRASQSIVSYLNWYQQKPGKAPKLLIYAATSRASGVPSRFSGSGSGTDFTLTISSLQPEDFATYYCQQSYDSPLTFGGGTKVEIK
Completion: 3.14
